- System: Hs-578T
- test-method-notes: NCI tumour cell line growth inhibition, 48 h
Activity calls are given as the source filed them. Cut-off read from the data, not from the text of the source: active = GI50 up to about 1.1 µM and inactive = higher.
measure: GI50

Q) Consider the compound COC(=O)/C=C1/OC(c2ccccc2)=CC1=O . State its measured GI50.
A) 22.9 µM (inactive)

Q) Consider the compound Cn1cncc1CC1COC(=O)C1C(O)c1ccccc1 (stereo not given) . State its measured GI50.
A) > 100 µM (inactive)

Q) Consider the compound CS/C=C\C(=O)O[C@H]1C[C@@H]2[C@@H](O)c3occ(C)c3C[C@]2(C)[C@@H](C)C1 . State its measured GI50.
A) 29.6 µM (inactive)

Q) Consider the compound CN(C)CCCN1C(=O)N(CCCN(C)C)c2c3cc(O)ccc3nc3c([N+](=O)[O-])ccc1c23 . State its measured GI50.
A) 21.5 µM (inactive)

Q) Consider the compound N#CCCOc1cccc(C2(N3CCCCC3)CCCCC2)c1 . State its measured GI50.
A) > 100 µM (inactive)

---

- System: EKVX
- test-method-notes: NCI tumour cell line growth inhibition, 48 h
Calls of active or inactive are those of the source. Rule as the data show it: active = GI50 up to about 1.1 µM and inactive = higher.
GI50 by entry:

[
  {
    "molecule": "CCC(Sc1cc(Cl)c(C)cc1S(=O)(=O)Nc1nc(N)nc(N(C)C)n1)C(=O)O (stereo unspecified)",
    "result": "> 10 µM (inactive)"
  },
  {
    "molecule": "CC12CCC3C(CCC4=CC(O)CCC43C=O)C1(O)CCC2c1ccc(=O)oc1 (stereo unspecified)",
    "result": "0.0124 µM (active)"
  },
  {
    "molecule": "Cc1cc(C)c2c(=O)n(CN3CCN(c4ccccc4)CC3)sc2n1",
    "result": "29.8 µM (inactive)"
  },
  {
    "molecule": "COc1cc(C[C@H]2C(=O)OC[C@@H]2Cc2ccc(OC)c(OC)c2)cc(OC)c1",
    "result": "55.6 µM (inactive)"
  },
  {
    "molecule": "COc1cccc(CCn2c(N)c(C#N)c3ccc([N+](=O)[O-])cc3c2=O)c1",
    "result": "> 31.6 µM (inactive)"
  },
  {
    "molecule": "O=C1c2ccccc2C(=O)N1CCN(CCN1C(=O)c2ccccc2C1=O)Cn1cccn1",
    "result": "> 100 µM (inactive)"
  },
  {
    "molecule": "CCNCCCCNCC",
    "result": "> 3750 µM (inactive)"
  },
  {
    "molecule": "N#CCCOc1cccc(C2(N3CCCCC3)CCCCC2)c1",
    "result": "> 100 µM (inactive)"
  }
]

Q) Find GI50 for NCCCCNCCCNC(=O)c1nc(-c2nc(CCN)sc2Cl)sc1Cl on EKVX and write it down.
A) > 100 µM (inactive)

Q) Find GI50 for C=C(Cl)C(Br)(CCl)CCC(Br)C(C)(C)Cl (stereo unspecified) on EKVX and write it down.
A) 5.58 µM (inactive)

Q) Find GI50 for C=CNC(=O)NC(=O)CSc1nc(=O)c(-c2ccccc2NC(=O)C(F)(F)F)n[nH]1 on EKVX and write it down.
A) 75 µM (inactive)

---

GI50 by entry:
- Test system: NCI-H522
- test-method-notes: NCI tumour cell line growth inhibition, 48 h
Calls of active or inactive are those of the source. No stated cut-off is given here; in the data, active = GI50 up to about 1.1 µM and inactive = higher.

Examples with answers:
[
  {
    "compound": "COc1ccc(C2c3cc4c(cc3OC(N3CCOCC3)C2C)OCO4)cc1OC (centres undefined)",
    "result": "5.51 µM (inactive)"
  },
  {
    "compound": "CC(=O)Nc1ccc(S(=O)(=O)N=S(C)C)cc1",
    "result": "> 100 µM (inactive)"
  },
  {
    "compound": "O=C(c1ccccc1)c1c(-c2ccccc2)[nH]n(-c2ccc([N+](=O)[O-])cc2)c(=O)c1=O",
    "result": "23.4 µM (inactive)"
  },
  {
    "compound": "COc1cc(NCc2ccc3oc(=O)c(-c4ccccc4)nc3c2)cc(OC)c1OC",
    "result": "> 10 µM (inactive)"
  },
  {
    "compound": "CC(C)N(C(=O)C12C3(C(=O)OC(C)(C)C)C4C5(C#N)C3C1(C(=O)OC(C)(C)C)C5C42C(=O)OC(C)(C)C)C(C)C (centres undefined)",
    "result": "35.3 µM (inactive)"
  }
]

Q) Consider the compound Nc1n[nH]c2c(C(=O)Nc3ccc(Cl)cc3)c(N)n(N)c(=O)c12 . State its measured GI50.
A) > 100 µM (inactive)

Q) Consider the compound C[C@]1(CO)[C@H]2CC[C@@]34C=C[C@@](CO)(CC[C@H]3[C@]2(C)CC[C@H]1O)C4 . State its measured GI50.
A) 64.4 µM (inactive)

Q) Consider the compound C[S+](C)CCOC(=O)C(=[N+]=[N-])c1ccc([N+](=O)[O-])cc1 . State its measured GI50.
A) > 100 µM (inactive)

Q) Consider the compound CN(C)c1ccc(/C=C/c2ccnc3ccc4ccccc4c23)cc1 . State its measured GI50.
A) 17.3 µM (inactive)

---

- Test system: LOX IMVI
- test-method-notes: NCI tumour cell line growth inhibition, 48 h
Activity calls are given as the source filed them. No stated cut-off is given here; in the data, active = GI50 up to about 1.1 µM and inactive = higher.
Give one outcome, nothing more. List: yes (1) (active), no (0) (inactive)

Answered cases to consult:
[
  {
    "molecule": "O=C(O)C(Cc1cccs1)C(=O)O",
    "target-entity": "LOX IMVI",
    "class-label": "no (0)"
  },
  {
    "molecule": "O=P(c1ccccc1)(c1ccccc1)C(NCc1ccccc1)c1ccc(F)cc1 (stereo not drawn)",
    "target-entity": "LOX IMVI",
    "class-label": "no (0)"
  },
  {
    "molecule": "NC(=O)c1[nH]nc(C2OC(CO)C(O)C2O)c1O (stereo not drawn)",
    "target-entity": "LOX IMVI",
    "class-label": "yes (1)"
  },
  {
    "molecule": "CC(=O)C1CC(C)=CCC12C(=O)Nc1ccccc12 (stereo not drawn)",
    "target-entity": "LOX IMVI",
    "class-label": "no (0)"
  },
  {
    "molecule": "CC(ON1[C@](C)(c2ccccc2)CC[C@@]1(C)c1ccccc1)c1ccccc1 (stereo partly drawn)",
    "target-entity": "LOX IMVI",
    "class-label": "no (0)"
  }
]

Q) Which outcome was assigned to CCN(N=O)C1C2(CCCC2)NC(=O)C12CCCC2 (stereo not drawn) in this test?
A) no (0)

Q) Which outcome was assigned to CCc1c(Cc2[nH]c(Cc3[nH]c(C=O)c(C)c3CC)c(CC)c2CC)[nH]c(C=O)c1C in this test?
A) no (0)

Q) Which outcome was assigned to CC1=CCC2CC1C(C(=O)c1c[nH]c3ccccc13)=NC2(C)C (stereo not drawn) in this test?
A) no (0)

---

- System: SK-OV-3
- test-method-notes: NCI tumour cell line growth inhibition, 48 h
Activity calls are given as the source filed them. Cut-off read from the data, not from the text of the source: active = GI50 up to about 1.1 µM and inactive = higher.
Give one outcome, nothing more. List: active, inactive

Answered cases to consult:
[
  {
    "compound": "Cn1cncc1CC1COC(=O)C1C(O)c1ccccc1 (stereo unspecified)",
    "class-label": "inactive"
  },
  {
    "compound": "COC1(OC)C(N(C)C)=C(Cl)C(=O)/C1=C/C=O",
    "class-label": "inactive"
  },
  {
    "compound": "Cc1ccc(C2[C@H]3C(=O)N(c4ccc(Cc5ccc(N6C(=O)[C@@H]7ON(c8ccccc8)C(c8ccc(C)cc8)[C@@H]7C6=O)cc5)cc4)C(=O)[C@H]3ON2c2ccccc2)cc1 (stereo partly specified)",
    "class-label": "inactive"
  },
  {
    "compound": "COC(=O)C(/C(=N/N)C(=O)Nc1cc(Cl)ccc1Cl)c1nc2ccc([N+](=O)[O-])cc2nc1O (stereo unspecified)",
    "class-label": "inactive"
  }
]

Then this compound:
Q) Which outcome was assigned to CC1CC/C(=C\c2ccc(F)cc2)C2=C1C(c1ccc(F)cc1)n1c(s/c(=C\c3ccc(Cl)cc3)c1=O)=N2 (stereo unspecified) in this test?
A) inactive

---

- Test system: NCI-H226
- test-method-notes: NCI tumour cell line growth inhibition, 48 h
Activity calls are given as the source filed them. Rule as the data show it: active = GI50 up to about 1.1 µM and inactive = higher.
Give one outcome, nothing more. List: Yes (active), No (inactive)

Q) Which outcome was assigned to CCC1(CN(C)C)CC/C(=C\c2ccc3c(c2)OCO3)C1=O (centres undefined) in this test?
A) No

Q) Which outcome was assigned to CCC(C)C1NC(=O)C(NC(=O)C(CC(C)C)N(C)C(=O)[C@@H]2CC(O)CN2C(=O)[C@H](C)O)C(C)OC(=O)[C@H](Cc2ccc(OC)cc2)N(C)C(=O)[C@@H]2CCCN2C(=O)[C@H](CC(C)C)NC(=O)C(C)C(=O)[C@H](C(C)C)OC(=O)CC1O (some centres undefined) in this test?
A) Yes

Q) Which outcome was assigned to O=C(OCC12CC3CC(CC(C3)C1)C2)c1ccc(NCc2cc(O)ccc2O)cc1 in this test?
A) No

Q) Which outcome was assigned to C1CSCCSCCCSCCSCCCSCCSCCCSCCSC1 in this test?
A) No
